- Tested on: ART (antigen-responding T-cell)
- Protocol description: In vitro ART (antigen-responding T-cell) proliferation test
- Type: cell-based, Lewis rat
- Particulars: Rattus norvegicus, T-cell, 1 μM; read-out: % Inhibition of ART growth
Counter-ions that a name gives are not always drawn.
Result type: inhibition at 1 µM (%)
Expressed in %, but write only the number.

Param readout= inhibition at 1 µM; system= ART (antigen-responding T-cell); entry= CC(=O)N(CCCSc1ccncc1)Cc1cccs1 ; returns value.
34

Param readout= inhibition at 1 µM; system= ART (antigen-responding T-cell); entry= O=c1c2ccccc2n(Cc2ccccc2)c(=O)n1CCCCSc1ccncc1 ; returns value.
-10

Param readout= inhibition at 1 µM; system= ART (antigen-responding T-cell); entry= CC(C)(C)C(=O)Nc1ncccc1SCN1C(=O)c2ccccc2C1=O ; returns value.
-3

Param readout= inhibition at 1 µM; system= ART (antigen-responding T-cell); entry= CC(C)(C)C(=O)NCCCSc1ccncc1.Cl [Example 24, hydrochloride] ; returns value.
29

Param readout= inhibition at 1 µM; system= ART (antigen-responding T-cell); entry= O=C1SC(=Cc2ccccc2)C(=O)N1CCSc1ccncc1 ; returns value.
4

Param readout= inhibition at 1 µM; system= ART (antigen-responding T-cell); entry= O=C1c2ccccc2CN1CCCOc1ccncc1 ; returns value.
39

Param readout= inhibition at 1 µM; system= ART (antigen-responding T-cell); entry= CC(=O)N(CCCSc1ccncc1)Cc1ccccc1 ; returns value.
5

Param readout= inhibition at 1 µM; system= ART (antigen-responding T-cell); entry= O=C1SC(=Cc2ccccc2)C(=O)N1CCCSc1ccncc1 ; returns value.
16

Param readout= inhibition at 1 µM; system= ART (antigen-responding T-cell); entry= O=C1CSC(=O)N1CCCCSc1ccncc1 ; returns value.
-14

Param readout= inhibition at 1 µM; system= ART (antigen-responding T-cell); entry= Cl.O=C(c1ccccc1)N(CCCSc1ccncc1)Cc1cccs1 [Example 93, hydrochloride] ; returns value.
42

Param readout= inhibition at 1 µM; system= ART (antigen-responding T-cell); entry= O=C1c2ccccc2CN1CCCCSc1ccncc1 ; returns value.
-11

Param readout= inhibition at 1 µM; system= ART (antigen-responding T-cell); entry= O=C(N(CCSc1ccncc1)Cc1ccccc1)C(F)(F)F ; returns value.
13

Param readout= inhibition at 1 µM; system= ART (antigen-responding T-cell); entry= Cl.O=C1c2ccccc2C(=O)N1COc1ccncc1 [Example 116, hydrochloride] ; returns value.
10

Param readout= inhibition at 1 µM; system= ART (antigen-responding T-cell); entry= O=C(NCCCSc1ccncc1)C(F)(F)F [Example 25, hydrochloride] ; returns value.
44

---

- System: brewer's yeast induced pyrexia
- Protocol description: Antipyretic activity (brewer's yeast induced pyrexia)
- Assay type: in vivo, rat (DS line)
- Particulars: 50 mg/kg, orally, at peak time
Counter-ions that a name gives are not always drawn.
Result type: Antipyretic activity, .increment. °C. (°C)
Expressed in °C, but write only the number.

Reported Antipyretic activity, .increment. °C. for CC(C)(C)C(=O)Nc1ncccc1CCN1C(=O)c2ccccc2C1=O.Cl : what is it?
-0.52

Reported Antipyretic activity, .increment. °C. for O=C1c2ccccc2C(=O)N1CSc1ccncc1 : what is it?
-1.40

Reported Antipyretic activity, .increment. °C. for O=C1c2ccccc2C(=O)N1CSc1ccccn1 : what is it?
-2.58

Reported Antipyretic activity, .increment. °C. for Cl.O=C1c2ccccc2C(=O)N1CCCOc1ccncc1 : what is it?
-0.82

Reported Antipyretic activity, .increment. °C. for O=C(NCCCSc1ccncc1)c1cnccn1 : what is it?
-1.52

Reported Antipyretic activity, .increment. °C. for O=C1CSC(=O)N1CSc1ccncc1 : what is it?
-2.43

Reported Antipyretic activity, .increment. °C. for O=C(NCCCSc1ccncc1)c1cc2ccccc2s1 : what is it?
-1.28

Reported Antipyretic activity, .increment. °C. for O=C(NCCCOc1ccncc1)c1cc2ccccc2s1 : what is it?
-1.00

Reported Antipyretic activity, .increment. °C. for CC(C)(C)c1ccc(C(=O)NCCCSc2ccncc2)cc1 [Example 32, hydrochloride] : what is it?
-1.39

Reported Antipyretic activity, .increment. °C. for O=C(NCCCSc1ccncc1)c1cccs1 [Example 46, 4-[3-(2-thenoylamino)propylthio]pyridine] : what is it?
-4.08

Reported Antipyretic activity, .increment. °C. for O=C(NCCCSc1ccncc1)c1ccccn1 : what is it?
-0.80

Reported Antipyretic activity, .increment. °C. for O=C(NCCCSc1ccncc1)c1ccccc1 [Example 40, 4-[3-(benzoylamino)propylthio]pyridine] : what is it?
-2.00

Reported Antipyretic activity, .increment. °C. for O=C1c2ccccc2C(=O)N1CCCOc1ccncc1 : what is it?
-0.82

Reported Antipyretic activity, .increment. °C. for O=C1c2ccccc2CN1CCCSc1ccncc1 : what is it?
-0.68

Reported Antipyretic activity, .increment. °C. for O=c1c2ccccc2oc(=S)n1CCCSc1ccncc1 : what is it?
-2.40

Reported Antipyretic activity, .increment. °C. for O=C1c2ccccc2C(=O)N1COc1ccncc1 : what is it?
-0.62

Reported Antipyretic activity, .increment. °C. for O=C1c2ccccc2C(=O)N1CCCCOc1ccncc1 : what is it?
-0.97

Reported Antipyretic activity, .increment. °C. for Cl.Cl.O=C(NCCCOc1ccncc1)c1ccccn1 : what is it?
-1.21

Reported Antipyretic activity, .increment. °C. for CC1(C)OC(=O)N(CSc2ccncc2)C1=O : what is it?
-2.02

Reported Antipyretic activity, .increment. °C. for Cl.O=C(N(CCCSc1ccncc1)Cc1ccccc1)C(F)(F)F : what is it?
-0.65

Reported Antipyretic activity, .increment. °C. for O=C(NCCCOc1ccncc1)c1cccs1 [Example 89, 4-[3-(2-thenoylamino)propyloxy]pyridine] : what is it?
-2.72

Reported Antipyretic activity, .increment. °C. for CC(C)(C)C(=O)NCCCSc1ccncc1.Cl : what is it?
-1.33

Reported Antipyretic activity, .increment. °C. for Cl.O=C1c2ccccc2C(=O)N1COc1ccncc1 : what is it?
-0.63

Reported Antipyretic activity, .increment. °C. for CNC(=O)c1ccccc1C(=O)NCSc1ccncc1 : what is it?
-1.58

Reported Antipyretic activity, .increment. °C. for O=C(NCCCSc1ccncc1)c1ccsc1 : what is it?
-3.50
